system: KB-VIN (P-gp-overexpressing MDR subline of KB); test: Antiproliferative activity, SRB assay, KB-VIN; details: read-out: IC50 KB-VIN, 50% reduction relative to untreated cells
What pIC50 was measured for each of the following?
Give bare numbers, as −log10 of the molar value.

For the 3 compounds below, give their pIC50 values.
1. C=CC(=C)CC[C@]1(C)[C@H](C)C[C@H](OC(=O)CCCCCCCCC)[C@@]23C(=C[C@H](OC(C)=O)C[C@@H]12)[C@@H](OC(C)=O)O[C@H]3OC(C)=O
2. C=CC(=C)CC[C@]1(C)[C@H](C)C[C@H](OC)[C@@]23C(=C[C@H](OC(=O)[C@@H](C)CC)C[C@@H]12)[C@@H](OC(C)=O)O[C@H]3OC(C)=O
3. C=CC(=C)CCC1(C)C(C)CC(O)C23C(=CC(OC(=O)C(C)CC)CC12)C(OC(C)=O)OC3OC(C)=O (stereo not drawn)

Result:
4.41
5.28
5.39
